Assay: chemical genetic growth profiling, strain panel (AID 1159580);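 note: tested at 20 µM; growth read once vehicle control cultures reached saturation at 30 °C; 1 = growth at the plate median or of vehicle wells; lower values mean less growth of the strain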
Settings: S. cerevisiae deletion strains, growth OD, locus YNR052C, strain pop2, stronger effect = lower value
The whole screen tested about 5,500 compounds, of which about 2,000 (36%) were called active. About 18% were inconclusive and are not listed. The list shows a part of the results.
RESULT_TYPE: normalized growth
Number, no unit, nothing else.

# annotated cases, reported normalized growth shown
MOLECULE | normalized growth
CCC(N)C(O)c1ccc(O)c(O)c1 (centres undefined) | 0.997
CCC(=O)c1c(O)cc(O)cc1O | 0.983

Item `CCc1cccc(CC)c1N(COC)C(=O)CCl` has what recorded normalized growth?
1.03

Would you kindly repeat that for `COc1cccc2c(C)cc(=O)[nH]c12` ?
0.986

Try this molecule too: `O=C(O[C@@H]1Cc2c(O)cc(O)cc2O[C@@H]1c1cc(O)c(=O)c2c(O)c(O)cc([C@H]3Oc4cc(O)cc(O)c4C[C@H]3OC(=O)c3cc(O)c(O)c(O)c3)c2c1)c1cc(O)c(O)c(O)c1`
0.975
